Target: Muscarinic acetylcholine receptor M4 (Homo sapiens) (UniProt P08173)
Sequence (P08173 whole entry, looked up): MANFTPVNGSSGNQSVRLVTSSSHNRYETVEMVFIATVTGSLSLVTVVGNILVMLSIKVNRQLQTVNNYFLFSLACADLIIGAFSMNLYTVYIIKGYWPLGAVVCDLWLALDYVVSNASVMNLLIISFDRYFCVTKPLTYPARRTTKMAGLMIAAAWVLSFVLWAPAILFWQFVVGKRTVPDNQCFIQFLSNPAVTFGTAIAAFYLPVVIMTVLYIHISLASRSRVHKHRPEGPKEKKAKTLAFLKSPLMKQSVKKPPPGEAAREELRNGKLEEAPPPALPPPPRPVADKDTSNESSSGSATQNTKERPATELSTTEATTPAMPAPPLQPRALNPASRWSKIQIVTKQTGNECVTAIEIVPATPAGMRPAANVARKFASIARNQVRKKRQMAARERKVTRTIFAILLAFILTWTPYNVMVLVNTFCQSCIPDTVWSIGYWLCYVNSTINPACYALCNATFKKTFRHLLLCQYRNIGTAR
Experiment: compounds altering M4/GIRK thallium flux, either direction, primary screen, M4 allosteric agonist project, cell-based, HEK293 M4/GIRK, BTC-AM (AID 625);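 note: thallium influx through GIRK channels coupled to M4 in HEK293 cells with BTC-AM dye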
Settings: at 10 µM, actives lie on both sides
Friendly reminder: fluorescence slope below 0.006 is Criterion met, at or above is Criterion not met.

Input line: Regarding `CC1(C)Cc2[nH]c(=O)c(C#N)cc2CS1` , kindly confirm whether its fluorescence slope is beneath 0.006.
Output line: Criterion met

Input line: Would you kindly repeat that for `Cc1cc(C(=O)O)c(CSc2ncn[nH]2)o1` ?
Output line: Criterion met

Input line: Would you kindly repeat that for `CCOc1ccc(N=C(NC#N)SCC(=O)NC2CC2)cc1` ?
Output line: Criterion not met

Input line: Would you kindly repeat that for `CC(C)CN1C(=O)c2ccc(C(=O)Nc3ccccn3)cc2C1=O` ?
Output line: Criterion not met

Input line: Would you kindly repeat that for `Cc1cc(=O)oc(C)c1C(=O)NC12CC3CC(CC(C3)C1)C2` ?
Output line: Criterion met
